Cited source for all entries: PubChem BioAssay (NCI)

system: SK-MEL-28 melanoma; test: NCI tumour cell line growth inhibition, 48 h
reportedEndpoint: TGI

The examples below pair each entry with its known result.
molecule: O=C1c2ccccc2C(=O)N1CC1(C(=O)O)NCCS1(=O)=O (configuration not stated)
TGI: > 100 µM

molecule: O=S1(=O)c2cnccc2NC(=NCc2cccc3ccccc23)N1c1ccccc1
TGI: > 100 µM

molecule: COC12C=CC(CC1)c1c(O)ccc(O)c12 (configuration not stated)
TGI: > 100 µM

molecule: O=c1n(/N=C/c2ccccc2)c(=O)n2n1C1C=CC2CC1
TGI: > 100 µM

molecule: NC(=O)OCC(COc1ccc(Cl)cc1)OC(=O)c1ccccc1Cl (configuration not stated)
TGI: 37.7 µM

GET /value?item= O=C1CSC2(CC(/C=C/c3ccccc3O)=NN2c2cccc(S(=O)(=O)O)c2)N1c1nc2ccccc2s1 (configuration not stated) &field=TGI returns > 100 µM

# TGI (molecule: CC1(Sc2ccccc2)CN(Cc2ccccc2)C1=O (configuration not stated) ) is > 100 µM
